conditions: 303.15 K; 10000 kPa; Liquid; Vibrating tube method
// reported mass density per item
QUANTITY: mass density (kg/m3)

>>> value_reported("CCC[N+]1(C)CCCCC1.O=S(=O)([N-]S(=O)(=O)C(F)(F)F)C(F)(F)F")
1414.3
>>> value_reported("CCC[N+]1(C)CCCC1.O=S(=O)([N-]S(=O)(=O)C(F)(F)F)C(F)(F)F")
1435.9
>>> value_reported("CCn1cc[n+](C)c1.O=S(=O)([O-])C(F)(F)F [1-ethyl-3-methylimidazolium trifluoromethanesulfonate]")
1376.1
>>> value_reported("CCCC[N+]1(C)CCCC1.O=S(=O)([N-]S(=O)(=O)C(F)(F)F)C(F)(F)F")
1406.6
>>> value_reported("CCC[n+]1cccc(C)c1.O=S(=O)([N-]S(=O)(=O)C(F)(F)F)C(F)(F)F")
1452.2
